system: metabolism of retinoic acid in human breast cancer cells; assay: Inhibition of retinoic acid (RA) metabolism (Example C.1); format: cell-based; settings: MCF-7 human breast cancer cells, 3H-RA as substrate; concentration needed to reduce the amount of metabolites to 50% of the control
Task for the reader: assign each of the following molecules its reported pIC50.
To interpret pIC50, take it as minus log10 of a concentration measured in moles per litre.

*Q* Could you share what pIC50 was measured for CC(C(c1ccc(NC(=O)Cc2ccc3c(c2)OCO3)cc1)n1cncn1)N(C)C (single isomer, unassigned) , tested on metabolism of retinoic acid in human breast cancer cells?
*A* 8.74

*Q* Consider next the molecule CCC(CC)C(c1ccc(NC(=O)Cc2ccc(O)cc2)cc1)n1cncn1 (racemic) in the same way.
*A* 9.60

*Q* Consider next the molecule CCC(CC)C(c1ccc(NC(=O)C(O)c2ccc(OC)c(OC)c2)cc1)n1ccnc1 (stereo not shown) in the same way.
*A* 10.60

*Q* Consider next the molecule CC(C(=O)Nc1ccc(C(C(C)C)n2ccnc2)cc1)=C(c1ccccc1)c1cccnc1 (mixture of isomers) in the same way.
*A* 7.07

*Q* Consider next the molecule CC(C)C(c1ccc(NC(=O)Cc2ccccn2)cc1)n1ccnc1 (racemic) in the same way.
*A* 7.45

###

tested on: metabolism of retinoic acid in human breast cancer cells; assay: Inhibition of retinoic acid (RA) metabolism (Example C.1); format: cell-based; settings: MCF-7 human breast cancer cells, 3H-RA as substrate; concentration needed to reduce the amount of metabolites to 50% of the control
Observable: pIC50
To interpret pIC50, take it as minus log10 of a concentration measured in moles per litre.

*Q* I'd like to know its pIC50. The compound in question is CC(C)C(c1ccc(NC(=O)Cc2ccc3ccccc3c2)cc1)n1ccnc1 (racemic)
*A* 8.87

*Q* Consider next the compound O=C(/C=C/c1ccccc1)Nc1ccc(C(c2ccccc2)n2ccnc2)cc1 (racemic) in the same way.
*A* 7.42

*Q* Consider next the compound CCC(CC)C(c1ccc(NC(=O)/C(C)=C/c2ccccc2)cc1)n1ccnc1 (racemic) in the same way.
*A* 8.79

*Q* Consider next the compound CCCC(c1ccc(NC(=O)/C(C)=C/c2ccccc2)cc1)n1ccnc1 (racemic) in the same way.
*A* 8.59

*Q* Consider next the compound O=C(/C=C/c1ccccc1)Nc1ccc(C(c2cccc(F)c2)n2cncn2)cc1 (racemic) in the same way.
*A* 7.80

*Q* Consider next the compound CC(C)(C)C(c1ccc(NC(=O)Cc2ccc(Cl)cc2)cc1)n1ccnc1 (stereo not shown) in the same way.
*A* 8.97

*Q* Consider next the compound CNC(=O)Nc1ccc(C(C(C)C)n2ccnc2)cc1 (stereo not shown) in the same way.
*A* 8.11

*Q* Consider next the compound CC(CC#N)C(c1ccc(NC(=O)Cc2ccc(Cl)cc2)cc1)n1ccnc1 (mixture of isomers) in the same way.
*A* 8.44

*Q* Consider next the compound C/C=C(\C)C(=O)Nc1ccc(C(C(C)C)n2ccnc2)cc1 (racemic) in the same way.
*A* 8.75

*Q* Consider next the compound CCC(CC)C(c1ccc(NC(=O)c2ccccc2)cc1)n1ccnc1 (racemic) in the same way.
*A* 8.98

*Q* Consider next the compound CCCC(C)C(c1ccc(NC(=O)/C(C)=C/c2ccccc2)cc1)n1ccnc1 (single isomer, unassigned) in the same way.
*A* 8.71

*Q* Consider next the compound CC(C)C(c1ccc(NC(=O)c2ccc3c(c2)C(C)(C)CCC3(C)C)cc1)n1ccnc1 (racemic) in the same way.
*A* 8.59

*Q* Consider next the compound CCC(CC)C(c1ccc(NC(=O)Cc2cc(C)ccc2OC)cc1)n1ccnc1 (racemic) in the same way.
*A* 8.62

*Q* Consider next the compound CC(=Cc1ccccc1)C(=O)Nc1ccc(C(CC(C)(C)C)n2ccnc2)cc1 (stereo not shown) in the same way.
*A* 7.45

*Q* Consider next the compound CCC(CC)C(c1ccc(NC(=O)C(O)c2ccc(Cl)cc2)cc1)n1cncn1 (racemic) [Compound 17] in the same way.
*A* 9.00

*Q* Consider next the compound CC(C)NC(=O)Nc1ccc(C(C(C)C)n2ccnc2)cc1 (racemic) in the same way.
*A* 8.11

*Q* Consider next the compound CCC(CC)C(c1ccc(NC(=O)Cc2ccc3c(c2)OCO3)cc1)n1cncn1 (racemic) in the same way.
*A* 9.57

*Q* Consider next the compound CC(C)C(c1ccc(NC(=O)Nc2nc3ccccc3n2C)cc1)n1ccnc1 (racemic) in the same way.
*A* 8.93

*Q* Consider next the compound C/C(=C\c1cccs1)C(=O)Nc1ccc(C(C(C)C)n2ccnc2)cc1 (racemic) in the same way.
*A* 8.42

*Q* Consider next the compound CCCC(=C(C)C(=O)Nc1ccc(C(C(C)C)n2ccnc2)cc1)c1ccccc1 (mixture of isomers) in the same way.
*A* 8.42

*Q* Consider next the compound CC(C)C(c1ccc(NC(=O)Cc2ccc(N=[N+]=[N-])c(I)c2)cc1)n1ccnc1 (single isomer, unassigned) [Compound 260] in the same way.
*A* 8.61

*Q* Consider next the compound CC(C)C(c1ccc(NC(=O)CSc2ncccn2)cc1)n1ccnc1 (stereo not shown) in the same way.
*A* 8.33

*Q* Consider next the compound CCC(CC)C(c1ccc(NC(=O)Cc2ccc(-c3ccccc3)cc2)cc1)n1ccnc1 (stereo not shown) in the same way.
*A* 8.70

*Q* Consider next the compound C/C(=C\c1ccccc1)C(=O)Nc1ccc(C(C(C)C)n2ccnc2)cc1 (racemic) [Compound 455] in the same way.
*A* 8.54

*Q* Consider next the compound CCC(CC)C(c1ccc(N(C)C(=O)Cc2ccc(OC)c(OC)c2)cc1)n1ccnc1 (racemic) in the same way.
*A* 8.08

*Q* Consider next the compound CC(C)C(c1ccc(NC(=O)c2ccc3nnn(C)c3c2)cc1)n1ccnc1 (racemic) in the same way.
*A* 8.29

*Q* Consider next the compound CC(C)(C)CC(c1ccc(NC(=O)Cc2ccc(Cl)cc2)cc1)n1ccnc1 (racemic) in the same way.
*A* 8.97

###

Task for the reader: assign each of the following compounds its reported minimal effective dose.
test system: Ovariectomized rats; experiment: Vaginal keratinization test on ovariectomized rats (Example C.2); format: in vivo; details: Rattus norvegicus, po, estradiol undecylate induced keratinization, per os once daily on days 1-3, active dose = 50% of rats show complete suppression, read-out: LAD (lowest active dose)
Your answer should be a plain number; it is taken to be in mg/kg.

*Q* I'd like to know its minimal effective dose. The compound in question is CC(Cc1ccccc1)C(=O)Nc1ccc(C(C(C)C)n2ccnc2)cc1 (racemic) [Compound 164]
*A* 20

*Q* Consider next the compound C/C(=C\c1ccc(N)cc1)C(=O)Nc1ccc(C(C(C)C)n2ccnc2)cc1 (racemic) [Compound 611] in the same way.
*A* 10

*Q* Consider next the compound C/C(=C\c1ccccc1)C(=O)Nc1ccc(C(C(C)C)n2cncn2)cc1 (racemic) [Compound 154] in the same way.
*A* 5

*Q* Consider next the compound CCOC(=O)CCCC(=O)Nc1ccc(C(C(C)C)n2ccnc2)cc1 (racemic) [Compound 219] in the same way.
*A* 20

*Q* Consider next the compound CC(C)C(c1ccc(NC(=S)NC(=O)c2ccccc2)cc1)n1ccnc1 (racemic) [Compound 698] in the same way.
*A* 20

*Q* Consider next the compound CC(=O)Nc1ccc(C(C(C)C)n2ccnc2)cc1 (racemic) [Compound 521] in the same way.
*A* 10

*Q* Consider next the compound CC(C)C(c1ccc(NC(=O)Nc2ccc(F)cc2)cc1)n1ccnc1 (racemic) [Compound 740] in the same way.
*A* 20

###

Task for the reader: assign each of the following compounds its reported IC50.
test system: metabolism of retinoic acid in human breast cancer cells; assay: Inhibition of retinoic acid (RA) metabolism (Example C.1); type: cell-based; conditions: MCF-7 human breast cancer cells, 3H-RA as substrate; concentration needed to reduce the amount of metabolites to 50% of the control
Your answer should be a plain number; it is taken to be in nM.

*Q* Could you share what IC50 was measured for COc1ccc(NC(=O)Nc2ccc(C(C(C)C)n3ccnc3)cc2)cc1OC (racemic) [Compound 708] , tested on metabolism of retinoic acid in human breast cancer cells?
*A* 1.61

*Q* Consider next the compound CC(C)C(c1ccc(NC(=O)Cc2cccc(O)c2)cc1)n1ccnc1 (racemic) [Compound 667] in the same way.
*A* 1.57

*Q* Consider next the compound CCC(CC)C(c1ccc(NC(=O)C(O)c2ccc(C)c(C)c2)cc1)n1cncn1 (mixture of isomers) [Compound 11] in the same way.
*A* 2.63

*Q* Consider next the compound CCC(CC)C(c1ccc(NC(=O)CN2CCOCC2)cc1)n1ccnc1 (racemic) [Compound 47] in the same way.
*A* 1.33

*Q* Consider next the compound CCC(CC)C(c1ccc(NC(=O)Cc2ccc3c(c2)OCCO3)cc1)n1cncn1 (racemic) [Compound 7] in the same way.
*A* 0.79

*Q* Consider next the compound CC(C)C(c1ccc(NC(=O)Cc2cccc3ccccc23)cc1)n1ccnc1 (racemic) [Compound 246] in the same way.
*A* 2.1

*Q* Consider next the compound O=C(Nc1ccc(C(c2ccc(Cl)cc2)n2ccnc2)cc1)C(O)c1ccccc1 (stereo not shown) [Compound 423] in the same way.
*A* 40.8

*Q* Consider next the compound O=C(Cc1ccc(Cl)cc1)Nc1ccc(C(C2CCCCC2)n2ccnc2)cc1 (stereo not shown) [Compound 362] in the same way.
*A* 14.3

*Q* Consider next the compound C/C(=C\c1ccc2ccccc2c1)C(=O)Nc1ccc(C(C(C)C)n2ccnc2)cc1 (racemic) [Compound 591] in the same way.
*A* 40.1

*Q* Consider next the compound CC(C)C(c1ccc(NC(=O)c2ccnc3ccccc23)cc1)n1ccnc1 (racemic) [Compound 227] in the same way.
*A* 7.8

*Q* Consider next the compound Cc1onc(-c2ccccc2)c1C(=O)Nc1ccc(C(C(C)C)n2ccnc2)cc1 (stereo not shown) [Compound 250] in the same way.
*A* 14.9

*Q* Consider next the compound C/C(=C\c1ccccc1)C(=O)Nc1ccc(C(C(C)C)n2ccnc2)cc1 (single isomer, unassigned) [Compound 458] in the same way.
*A* 3.22

*Q* Consider next the compound CCC(CC)C(c1ccc(NC(=O)C(O)c2ccc(Cl)cc2)cc1)n1cncn1 (racemic) [Compound 18] in the same way.
*A* 0.872

*Q* Consider next the compound CC(=Cc1ccc(Cl)cc1)C(=O)Nc1ccc(C(C(C)C)n2ccnc2)cc1 (racemic) [Compound 579] in the same way.
*A* 12.4

*Q* Consider next the compound CC(C)C(c1ccc(NC(=O)Cc2ccc3c(c2)C(C)(C)CCC3(C)C)cc1)n1ccnc1 (racemic) [Compound 256] in the same way.
*A* 3.2

*Q* Consider next the compound CC(C)C(c1ccc(NC(=O)Cc2cccc(O)c2)cc1)n1cncn1 (stereo not shown) [Compound 137] in the same way.
*A* 1.85

Reference source: patent US7179825B2
